Origin of values: patent US8058307B2

- Target or system: renin (Homo sapiens, UniProt P00797)
- Construct: This test measures the formation of angiotensin I in human plasma
- Sequence (P00797 67-406): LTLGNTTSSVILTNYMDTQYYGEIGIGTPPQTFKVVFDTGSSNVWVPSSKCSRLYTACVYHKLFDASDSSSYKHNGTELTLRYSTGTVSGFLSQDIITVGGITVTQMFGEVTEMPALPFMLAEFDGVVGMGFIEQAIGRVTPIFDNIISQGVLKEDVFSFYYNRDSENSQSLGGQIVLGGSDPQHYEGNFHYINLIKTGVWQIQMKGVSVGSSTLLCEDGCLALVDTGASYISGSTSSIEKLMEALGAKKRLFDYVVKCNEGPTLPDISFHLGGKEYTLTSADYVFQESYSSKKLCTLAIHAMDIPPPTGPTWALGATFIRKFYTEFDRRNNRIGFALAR
- Experimental protocol: in vitro test of Nussberger et al.: formation of angiotensin I in human plasma, radio-immunoassay
- Condition: concentration which reduces the formation of angiotensin I in human plasma by 50%

{"Compound": "COCCCOc1cc(C[C@@H](C[C@H](N)[C@@H](O)C[C@H](C(=O)NC[C@H]2CCCO2)C(C)C)C(C)C)ccc1OC [Example 1]", "IC50": "2.6 nM"}
